# assayed-target: UniProtKB P00797
# Sequence (P00797 67-406): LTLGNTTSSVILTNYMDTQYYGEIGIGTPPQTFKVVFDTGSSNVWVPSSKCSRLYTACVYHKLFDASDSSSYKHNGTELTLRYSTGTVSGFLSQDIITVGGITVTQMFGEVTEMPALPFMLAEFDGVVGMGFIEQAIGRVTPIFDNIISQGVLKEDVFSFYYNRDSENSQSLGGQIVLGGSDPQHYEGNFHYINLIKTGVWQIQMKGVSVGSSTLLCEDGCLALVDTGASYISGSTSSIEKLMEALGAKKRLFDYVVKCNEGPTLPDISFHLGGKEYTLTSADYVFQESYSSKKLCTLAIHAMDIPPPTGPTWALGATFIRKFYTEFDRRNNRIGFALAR
# test: human renin inhibition in vitro assay
# stated-conditions: pH 7.4, 37° C., two hours, human plasma substrate
parameter-measured: pIC50
Here pIC50 is given on a logarithmic scale as minus log10 of the concentration in mol/L.

Known results for compounds:
# compound, assayed-target, pIC50
data = [
    ("CC(C)C[C@H](NC(=O)[C@H](Cc1ccccc1)OC(=O)N1CCOCC1)C(=O)N[C@@H](CC1CCCCC1)[C@@H](O)[C@H](C)O [Example 9]", "UniProtKB P00797", 7.00),
    ("CC(C)C[C@H](NC(=O)[C@H](Cc1ccccc1)OC(=O)N1CCOCC1)C(=O)N[C@@H](CC1CCCCC1)[C@@H](O)CO [Example 11]", "UniProtKB P00797", 6.31),
]

Moving on to another compound below.
Could you share what pIC50 was measured for CC(C)C[C@H](NC(=O)[C@H](Cc1ccccc1)OC(=O)N1CCOCC1)C(=O)N[C@@H](CC1CCCCC1)[C@@H](O)[C@@H](O)CC(C)C [Example 6] , tested on UniProtKB P00797?
7.15
